# tested.target: human CA-XII (Homo sapiens)
# Construct: purchased Creative BioMart CA12-261H
# Sequence (O43570 25-354): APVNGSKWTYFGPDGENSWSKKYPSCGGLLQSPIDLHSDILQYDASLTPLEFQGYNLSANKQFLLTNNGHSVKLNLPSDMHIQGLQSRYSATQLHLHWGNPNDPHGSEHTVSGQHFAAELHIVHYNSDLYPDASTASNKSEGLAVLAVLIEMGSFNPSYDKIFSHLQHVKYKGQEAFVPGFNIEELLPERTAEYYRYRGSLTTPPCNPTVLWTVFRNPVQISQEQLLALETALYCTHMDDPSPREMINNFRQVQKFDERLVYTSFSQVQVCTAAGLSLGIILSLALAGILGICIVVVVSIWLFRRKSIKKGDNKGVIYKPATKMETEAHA
# assay.remarks: Surface Plasmon Resonance (SPR) binding kinetics to recombinant human CA-XII (Biacore 8K, single-cycle kinetics, 1:1 binding model)
# assay.context: Chelated Metal: Lu-175, 25° C., pH 7.4, read-out: CAXII KD
pKd: −log10 of the molar value.
readout.name: pKd

[[record]]
structure_notation = "NS(=O)(=O)c1nnc(NC(=O)C23CC(c4cn(CCNC(=O)[C@@H]5CN(C(=O)CN6CCN(CC(=O)O)CCN(CC(=O)O)CCN(CC(=O)O)CC6)CCN5C(=O)C[C@H](NC(=O)C[C@H](NC(=O)Cc5n[nH]c6ccc(O)cc56)C(=O)O)C(=O)O)nn4)(C2)C3)s1.[Lu+3]"
data_value = "< 8.00"

[[record]]
structure_notation = "Cc1c(C(F)(F)F)n[nH]c1C(=O)N[C@@H](CC(=O)N[C@@H](CCC(=O)N1CCN(C(=O)CN2CCN(CC(=O)O)CCN(CC(=O)O)CCN(CC(=O)O)CC2)C[C@H]1C(=O)NCCn1cc(C23CCC(C(=O)Nc4nnc(S(N)(=O)=O)s4)(CC2)CC3)nn1)C(=O)O)C(=O)O.[Lu+3]"
data_value = "> 9.00"

[[record]]
structure_notation = "CC(CCCC(=O)N1CCC(C#N)(C(=O)NCC(=O)N2CCN(C(=O)CN3CCN(CC(=O)O)CCN(CC(=O)O)CCN(CC(=O)O)CC3)C[C@@H]2C(=O)NCCn2cc(C34CC(C(=O)Nc5nnc(S(N)(=O)=O)s5)(C3)C4)nn2)CC1)(c1ccc(O)cc1)c1ccc(O)cc1.[Lu+3]"
data_value = "< 8.00"


---

In this section we review reported Kd values for a set of compounds.
# tested.target: human CA-IX (Homo sapiens)
# Construct: purchased Acro CA9-H82E3
# assay.remarks: Surface Plasmon Resonance (SPR) binding kinetics to recombinant human CA-IX (Biacore 8K, single-cycle kinetics, 1:1 binding model)
# assay.context: read-out: CAIX KD; Chelated Metal: Lu-175; SPR, 25° C., pH 7.4
readout.name: Kd

[[record]]
compound = "CC(CCC(=O)N[C@@H](CC(=O)N[C@@H](CC(=O)N[C@@H](CCCCn1cc(C23CC(C(=O)Nc4nnc(S(N)(=O)=O)s4)(C2)C3)nn1)C(=O)NCCOCCOCCNC(=O)CN1CCN(CC(=O)O)CCN(CC(=O)O)CCN(CC(=O)O)CC1)C(=O)O)C(=O)O)(c1ccc(O)cc1)c1ccc(O)cc1.[Lu+3] [Compound 100]"
data_value = "1 to 2.5 nM"

[[record]]
compound = "CC(CCC(=O)N[C@@H](CC(=O)N[C@@H](CC(=O)N1CCN(C(=O)CN2CCN(CC(=O)O)CCN(CC(=O)O)CCN(CC(=O)O)CC2)C[C@H]1C(=O)NCCn1cc(C23CC(C(=O)Nc4nnc(S(N)(=O)=O)s4)(C2)C3)nn1)C(=O)O)C(=O)O)(c1ccc(O)cc1)c1ccc(O)cc1.[Lu+3] [Compound 106]"
data_value = "< 1 nM"

[[record]]
compound = "CC(CCCC(=O)N1CCC(C(N)=O)(C(=O)NCC(=O)NC2(C(=O)NCCn3nnc(C45CC(C(=O)Nc6nnc(S(N)(=O)=O)s6)(C4)C5)c3C(N)=O)CCN(C(=O)CN3CCN(CC(=O)O)CCN(CC(=O)O)CCN(CC(=O)O)CC3)CC2)CC1)(c1ccc(O)cc1)c1ccc(O)cc1.[Lu+3] [Compound 136]"
data_value = "< 1 nM"


---

# tested.target: human CA-XII (Homo sapiens)
# Construct: purchased Creative BioMart CA12-261H
# assay.remarks: Surface Plasmon Resonance (SPR) binding kinetics to recombinant human CA-XII (Biacore 8K, single-cycle kinetics, 1:1 binding model)
# assay.context: read-out: CAXII KD, Chelated Metal: Lu-175, 25° C., pH 7.4
pKd: −log10 of the molar value.
Collected pKd values appear next to each entry.
readout.name: pKd

[[record]]
structure_notation = "CC(CCC(=O)N[C@@H](CC(=O)N[C@@H](CC(=O)NC1(CCCCn2cc(CCCC(=O)Nc3nnc(S(N)(=O)=O)s3)nn2)CCN(C(=O)CN2CCN(CC(=O)O)CCN(CC(=O)O)CCN(CC(=O)O)CC2)CC1)C(=O)O)C(=O)O)(c1ccc(O)cc1)c1ccc(O)cc1.[Lu+3]"
data_value = "8.00 to 8.60"

[[record]]
structure_notation = "CC(CCCC(=O)N1CCC(C(N)=O)(C(=O)NCC(=O)N2CCN(C(=O)CCOCCOCCOCCOCCN(CCOCCOCCOCCOCCC(=O)N3CCN(C(=O)CNC(=O)C4(C(N)=O)CCN(C(=O)CCCC(C)(c5ccc(O)cc5)c5ccc(O)cc5)CC4)[C@H](C(=O)NCCn4cc(C56CC(C(=O)Nc7nnc(S(N)(=O)=O)s7)(C5)C6)nn4)C3)C(=O)CNC(=O)CN3CCN(CC(=O)O)CCN(CC(=O)O)CCN(CC(=O)O)CC3)C[C@H]2C(=O)NCCn2cc(C34CC(C(=O)Nc5nnc(S(N)(=O)=O)s5)(C3)C4)nn2)CC1)(c1ccc(O)cc1)c1ccc(O)cc1.[Lu+3]"
data_value = "8.00 to 8.60"


---

# tested.target: human CA-IX (Homo sapiens, UniProt Q16790)
# Construct: purchased Acro CA9-H82E3
# assay.remarks: Surface Plasmon Resonance (SPR) binding kinetics to recombinant human CA-IX (Biacore 8K, single-cycle kinetics, 1:1 binding model)
# assay.context: Chelated Metal: Lu-175; SPR, 25° C., pH 7.4; read-out: CAIX KD
readout.name: Kd

[[record]]
compound = "NS(=O)(=O)c1nnc(NC(=O)C23CC(c4cn(CCNC(=O)[C@@H]5CN(C(=O)CN6CCN(CC(=O)O)CCN(CC(=O)O)CCN(CC(=O)O)CC6)CCN5C(=O)C[C@H](Nc5ncc(C(=O)N6CCC(c7ccc(O)cc7)(c7ccc(O)cc7)CC6)cn5)C(=O)O)nn4)(C2)C3)s1.[Lu+3]"
readout_name = "Kd"
data_value = "2.5 to 10 nM"

[[record]]
compound = "NS(=O)(=O)c1nnc(CC(=O)C23CC(c4cn(CCNC(=O)[C@H]5COCCN5C(=O)CC[C@H](NC(=O)[C@H](CCCCNC(=O)CN5CCN(CC(=O)O)CCN(CC(=O)O)CCN(CC(=O)O)CC5)NC(=O)CCC5CCCCC5)C(=O)O)nn4)(C2)C3)s1.[Lu+3]"
readout_name = "Kd"
data_value = "1 to 2.5 nM"

[[record]]
compound = "CC(CCCC(=O)N1CCC(C(N)=O)(C(=O)NCC(=O)NC2(C(=O)NCCn3cc(C45CC(C(=O)Nc6nnc(S(N)(=O)=O)s6)(C4)C5)nn3)CCN(C(=O)CN3C[C@@H]4CN(C(=O)CN5CCN(CC(=O)O)CCN(CC(=O)O)CCN(CC(=O)O)CC5)C[C@@H]4C3)CC2)CC1)(c1ccc(O)cc1)c1ccc(O)cc1.[Lu+3] (racemic)"
readout_name = "Kd"
data_value = "< 1 nM"

[[record]]
compound = "CC(CCCC(=O)N1CCC(C(N)=O)(C(=O)NCC(=O)NC2(C(=O)NCCn3cc(COc4ccc5nc(S(N)(=O)=O)sc5c4)nn3)CCN(C(=O)CN3CCN(CC(=O)O)CCN(CC(=O)O)CCN(CC(=O)O)CC3)CC2)CC1)(c1ccc(O)cc1)c1ccc(O)cc1.[Lu+3]"
readout_name = "Kd"
data_value = "< 1 nM"

[[record]]
compound = "CC(CC(=O)N1CCC(C(N)=O)(C(=O)NCC(=O)N[C@@H](CCCCn2cc(CCCC(=O)Nc3nnc(S(N)(=O)=O)s3)nn2)C(=O)NCCOCCOCCNC(=O)CN2CCN(CC(=O)O)CCN(CC(=O)O)CCN(CC(=O)O)CC2)CC1)(c1ccc(O)cc1)c1ccc(O)cc1.[Lu+3]"
readout_name = "Kd"
data_value = "2.5 to 10 nM"

[[record]]
compound = "CC(CCC(=O)N[C@@H](CC(=O)N[C@@H](CC(=O)N1CCN(C(=O)CN2CCN(CC(=O)O)CCN(CC(=O)O)CCN(CC(=O)O)CC2)C[C@H]1C(=O)NCCn1cc(C23CC(C(=O)Nc4nnc(S(N)(=O)=O)s4)(C2)C3)nn1)C(N)=O)C(N)=O)(c1ccc(O)cc1)c1ccc(O)cc1.[Lu+3]"
readout_name = "Kd"
data_value = "1 to 2.5 nM"

[[record]]
compound = "CC(CC(=O)N[C@@H](CC(=O)N[C@@H](CC(=O)N[C@@H](CCCCn1cc(C23CCC(C(=O)Nc4nnc(S(N)(=O)=O)s4)(CC2)C3)nn1)C(=O)NCCOCCOCCNC(=O)CN1CCN(CC(=O)O)CCN(CC(=O)O)CCN(CC(=O)O)CC1)C(=O)O)C(=O)O)(c1ccc(O)cc1)c1ccc(O)cc1.[Lu+3]"
readout_name = "Kd"
data_value = "< 1 nM"

